The values you see were collected from paper PMC10364317.

# Study target: TyrRA153 (Serratia plymuthica)
# Sequence (A0A318P557 entry or part of it): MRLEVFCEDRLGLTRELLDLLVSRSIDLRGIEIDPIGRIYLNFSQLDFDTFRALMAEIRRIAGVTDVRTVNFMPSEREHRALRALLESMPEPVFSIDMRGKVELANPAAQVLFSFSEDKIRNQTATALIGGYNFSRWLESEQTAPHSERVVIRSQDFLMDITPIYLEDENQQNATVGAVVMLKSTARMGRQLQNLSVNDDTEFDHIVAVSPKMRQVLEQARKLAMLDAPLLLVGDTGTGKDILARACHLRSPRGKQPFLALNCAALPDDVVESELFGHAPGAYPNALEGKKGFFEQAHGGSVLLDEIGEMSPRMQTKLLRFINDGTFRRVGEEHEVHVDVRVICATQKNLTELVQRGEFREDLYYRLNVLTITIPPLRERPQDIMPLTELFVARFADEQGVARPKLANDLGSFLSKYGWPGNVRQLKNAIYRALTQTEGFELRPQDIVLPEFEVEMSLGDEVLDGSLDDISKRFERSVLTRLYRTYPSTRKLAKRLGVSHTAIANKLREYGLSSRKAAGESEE
# Test: Isothermal titration calorimetry of TyrRA153 with ligands
# Type: binding, Serratia plymuthica A153
# Measurement setup: ITC, ligand alone (absence of ATP for amino acids); read-out: K D
pKd: −log10 of the molar value.
// reported pKd per item
Reported property: pKd

1) Nc1ncnc2c1ncn2[C@@H]1O[C@H](COP(=O)(O)OP(=O)(O)OP(=O)(O)O)[C@@H](O)[C@H]1O    4.80
2) N[C@@H](Cc1c[nH]c2ccccc12)C(=O)O    2.57

----------
# Study target: TyrRA153 (Serratia plymuthica)
# Test: Isothermal titration calorimetry of TyrRA153 with ligands
# Assay type: binding, Serratia plymuthica A153
# Measurement setup: ITC, in the presence of ATP; read-out: K D
pKd: −log10 of the molar value.
Reported property: pKd

1. N[C@@H](Cc1ccc(O)cc1)C(=O)O [L‐Tyr, L‐Tyrosine]    5.22
2. N[C@@H](Cc1ccccc1)C(=O)O [L‐Phe, L‐Phenylalanine]    3.71
